Hi there, I'd appreciate the recorded pEC50 for every entry that follows.
target: human GPR119 (Homo sapiens); construct: expression vector for human GPR119 cDNA (Acc. No. NP_848566); Min-6/hGPR119; assay: AlphaScreen cAMP assay in MIN6 cells stably transfected with human GPR119; settings: Min-6/hGPR119 cells, 45 min at room temperature
Sequence (Q8TDV5 whole entry): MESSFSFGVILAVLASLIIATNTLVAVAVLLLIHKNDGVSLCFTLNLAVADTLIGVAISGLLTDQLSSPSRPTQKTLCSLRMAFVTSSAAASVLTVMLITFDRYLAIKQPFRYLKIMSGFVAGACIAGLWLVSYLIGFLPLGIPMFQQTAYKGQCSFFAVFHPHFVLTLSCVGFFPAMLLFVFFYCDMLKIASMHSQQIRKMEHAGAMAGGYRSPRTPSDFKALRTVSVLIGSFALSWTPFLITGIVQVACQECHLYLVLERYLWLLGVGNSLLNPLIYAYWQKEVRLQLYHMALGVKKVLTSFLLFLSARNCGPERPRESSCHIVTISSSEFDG
Scale: negative log10 of molar concentration, which is what pEC50 denotes.

Q. Which measured pEC50 belongs to CC(C)(C)OC(=O)N1CCC(N(C(=O)c2cnc(-c3ccc(C(=O)N4CCC[C@@H]4C#N)c(F)c3)nc2)C2CC2)CC1 [Example 161] , tested on human GPR119 (Homo sapiens)?
A. 6.56

Q. Request - read-out pEC50 | tested on human GPR119 (Homo sapiens) | compound COC1CN(C(=O)Cc2ccc(-c3ncc(C(=O)N(C4CC4)C4CCN(C(=O)OC(C)(C)C)CC4)cn3)cc2)C1 [Example 216]
A. 6.37

Q. Form field - read-out: pEC50; system: human GPR119 (Homo sapiens); submitted item: COCc1cccc(NC(=O)c2ccc(-c3ncc(C(=O)N(C4CC4)C4CCN(C(=O)OC(C)(C)C)CC4)cn3)cc2)c1 [Example 240]
A. 6.77

Q. // map COCC1CCCCN1C(=O)c1ccc(-c2ncc(C(=O)N(C3CC3)C3CCN(C(=O)OC(C)(C)C)CC3)cn2)cc1F (stereo not shown) [Example 149] to recorded pEC50 (system: human GPR119 (Homo sapiens))
A. 6.53

Q. Form field - read-out: pEC50; system: human GPR119 (Homo sapiens); submitted item: CC(C)(C)OC(=O)N1CCC(N(C(=O)c2cnc(-c3ccc(CC(=O)Nc4ccccc4)cc3)nc2)C2CC2)CC1 [Example 180]
A. 6.54

Q. Missing value: pEC50, human GPR119 (Homo sapiens), entry Cc1cnc(CNC(=O)Cc2ccc(-c3ncc(C(=O)N(C4CC4)C4CCN(C(=O)OC(C)(C)C)CC4)cn3)cc2)s1 [Example 199] . Fill in?
A. 6.40

Q. human GPR119 (Homo sapiens) / pEC50 / CC(C)(C)OC(=O)N1CCC(N(C(=O)c2cnc(-c3ccc(C(=O)NCCS(C)(=O)=O)c(F)c3)nc2)C2CC2)CC1 [Example 123] : value?
A. 6.20

Value source: patent US20140045823A1
